tested on: pERK in A375 cells; experiment: In Cell Western (ICW) assay, pERK in A375 cells; type: cell-based; conditions: Homo sapiens, A-375, 3 h treatment
parameter: IC50

* CCS(=O)(=O)Nc1cccc(-c2cc(OC)c3nc(-c4cnc(N)nc4)nc(N4CCOCC4)c3c2)c1F | 100 to 1000 nM
* Cc1nc(N)ncc1-c1nc(N2CCOC[C@@H]2C)c2nc(-c3cccc(NS(=O)(=O)CCCF)c3F)ccc2n1 | 100 to 1000 nM
* COc1cc(-c2cccc(NS(=O)(=O)c3cc(F)ccc3F)c2F)cc2c(N3CCOCC3)nc(-c3cnc(N)nc3)nc12 | 1 to 100 nM
* COc1cc(-c2cccc(NS(=O)(=O)CCCF)c2F)cc2c(N3CCOCC3)nc(-c3ccc(N)nc3)nc12 | 1 to 100 nM
* Nc1ncc(-c2nc(N3CCOCC3)c3cc(-c4cccc(NS(=O)(=O)CCCF)c4F)cc(N4CCCC4)c3n2)cn1 | 1 to 100 nM

Suppose we examine the compound "Nc1ncc(-c2nc(N3CCOCC3)c3nc(-c4cccc(NS(=O)(=O)CCCF)c4F)ccc3n2)c(C(F)(F)F)n1" ; what IC50 value has been reported?
100 to 1000 nM

So what's the measured IC50 for this one? "CCCS(=O)(=O)Nc1cccc(-c2cc(C)c3nc(-c4ccc(N)nc4)nc(N4CCOCC4)c3c2)c1F"
100 to 1000 nM

---

Tested on: pERK in A375 cells
Assay: In Cell Western (ICW) assay, pERK in A375 cells
Assay type: cell-based
Conditions: Homo sapiens, A-375, 3 h treatment
Description: Cell lines A375, A2058 and RKO obtained from the ATCC as provided above, were grown, and after attaining ˜80% confluency were trypsinized, centrifuged and resuspended in fresh media. […] The fluorescence emission was then read at 615 nm with an excitation wavelength of 340 nm using a Victor V5 Fluorometer (Perkin Elmer, US). […]
pIC50: −log10 of the molar value.
parameter: pIC50

• COc1cc(-c2cccc(NS(=O)(=O)CCCF)c2F)cc2c(N3CCOCC3)nc(-c3cccc4[nH]ncc34)nc12 = 7.00 to 9.00

If you can, please state the reported pIC50 value of "Nc1ccc(-c2nc(N3CCOCC3)c3cc(-c4cccc(NS(=O)(=O)CCCF)c4F)cc(OC4CCCC4)c3n2)cn1" .
7.00 to 9.00

# pIC50 lookup, item "CCCS(=O)(=O)Nc1cccc(-c2cc(OC)c3nc(-c4cccc5[nH]ncc45)nc(N4CCOCC4)c3c2)c1F"
6.00 to 7.00

Reported pIC50 for "C[C@@H]1COCCN1c1nc(-c2ccc(N)nc2)nc2ccc(-c3cccc(NS(=O)(=O)CCCF)c3F)nc12" : what is it?
7.00 to 9.00

// lookup pIC50 for "Nc1ccc(-c2nc(N3CCOCC3)c3nc(-c4cccc(NS(=O)(=O)CCCF)c4F)ccc3n2)cn1"
6.00 to 7.00

I would be grateful if you could share the reported pIC50 for "CNc1ncc(-c2nc(N3CCOCC3)c3cc(-c4cccc(NS(=O)(=O)CCCF)c4F)cc(OC)c3n2)cn1" .
7.00 to 9.00

Form field: reported pIC50 of "Nc1ncc(-c2nc(N3CCOCC3)c3nc(-c4cccc(NS(=O)(=O)CCCF)c4F)ccc3n2)cc1Cl"
6.00 to 7.00

Origin of values: patent US9499495B2
